Where do these numbers come from? They come from PubChem BioAssay (NCI).

Test system: IGROV1 ovarian
ASSAY_DETAILS: NCI-60 one-dose screen, 48 h (100 = growth as untreated, 0 = no growth, -100 = all killed)
STUDY_CONDITIONS: 10 µM unless noted
This is part of a sample that, as a whole, favours compounds with a hit. Of some 83,000 tested, about 20% had one in any assay. Calls of active or inactive are those of the source. How the source made its calls: active means growth percent below 10; inactive means the rest.
Listing of recorded growth by entry.

Below: 8 compounds and their reported growth.
COMPOUND	growth
Cn1c(=O)c2[nH]c(=S)n(Cc3ccccc3)c2n(C)c1=O	108% (inactive)
CCOC(=O)C(Br)=P(c1ccccc1)(c1ccccc1)c1ccccc1	-30.7% (active)
COc1ccc(C2CC(c3ccc(Nc4ccnc5cc(Cl)ccc45)cc3)=NN2C(C)=O)cc1 (centres undefined)	74.4% (inactive)
O=C1Nc2ccc(Cl)cc2/C1=C/c1cccs1	65.1% (inactive)
C[C@H](C(=O)N[C@@H](Cc1ccc(-c2ccccc2)cc1)C(=O)NC1CC(C)(C)NC(C)(C)C1)c1ccc(-c2ccccc2)c(F)c1	-36.8% (active)
COc1cc(/C=C/C(=O)C(C(=O)/C=C/c2ccc(OC(=O)CCNC34CC5CC(CC(C5)C3)C4)c(OC)c2)C(=O)CCNC23CC4CC(CC(C4)C2)C3)ccc1OC(=O)CCNC12CC3CC(CC(C3)C1)C2 (centres undefined)	-33.2% (active)
CCN1CC2=C(Nc3nc(SC)[nH]c(=O)c3C2c2cc(OC)c(OC)c(OC)c2)/C(=C/c2cc(OC)c(OC)c(OC)c2)C1 (centres undefined)	120% (inactive)
c1ccc2c(-c3nc4ccccc4[nH]3)cccc2c1	44.1% (inactive)

Next, consider the following compound.
Per the records, this compound ( COc1ccc(C2CC(c3ccc4c(c3)OCO4)=NN2C=O)cc1 (centres undefined) ) has growth equal to 127% (inactive)

====

Test system: HT29 colon
ASSAY_DETAILS: NCI-60 one-dose screen, 48 h
STUDY_CONDITIONS: 10 µM unless noted
This is part of a sample that, as a whole, favours compounds with a hit. Of some 83,000 tested, about 20% had one in any assay. Active and inactive are the calls of the source. How the source made its calls: active means growth percent below 10; inactive means the rest.
Returns: one label drawn from active, inactive

// below: answered compounds
> print(dat)
                                   compound       cat
1     CCSc1ncc(Br)c(Sc2nc(N)nc3nc[nH]c23)n1  inactive
2  CCOC(=O)C1C(=O)NC(C(=O)OCC)(C(=O)OCC)C1CC (stereo unspecified)  inactive
3              CCCCCCCCCCN1CCC(N2CCCCC2)CC1    active
4  COC(=O)[C@H](Cc1cn(C)cn1)NC(=O)[C@H](Cc1ccccc1)NC(=O)Nc1cc(C(F)(F)F)cc(C(F)(F)F)c1    active
5      O=C(C(=O)c1cc(Br)ccc1O)c1cc(Br)ccc1O  inactive

INPUT: Hey, what did the test say about CCOC(=O)c1sc(NC(=O)COc2ccc(/C=C3\CCc4cc(OC)ccc4C3=O)cc2)nc1C ?
OUTPUT: inactive

====

Test system: HS 578T breast
ASSAY_DETAILS: NCI-60 one-dose screen, 48 h (100 = growth as untreated, 0 = no growth, -100 = all killed)
STUDY_CONDITIONS: 10 µM unless noted
The panel holds about 83,000 compounds, 20% with a hit somewhere; the sample as a whole holds those more often.
ATTRIBUTE_MEASURED: growth (%)
Answer in %, number only, no unit symbol.

> print(dat)
                                smiles.text  target.or.test.system  attribute.measured  units.of.measure  obs.value
1    CCOC(CNCc1cc(C)c2[nH]c3ccccc3c2c1C)OCC         HS 578T breast              growth                 %       84.6
2  CCOC(=O)CNC(=O)C1(NC(=O)CNC(=O)OCc2ccccc2)CCCC1         HS 578T breast              growth                 %        125

Per the records, this compound ( COc1cnc2c(c1)C(=O)c1c-2n(CCCn2ccnc2)c(=O)c2cc(F)ccc12 ) has growth equal to 15.5

Per the records, this compound ( C=CCNC(=O)/C(=C/c1cccc([N+](=O)[O-])c1)NC(=O)c1ccccc1 ) has growth equal to 108

Per the records, this compound ( CC(C)N(Cc1ccccc1)c1c(Cl)ssc1=O ) has growth equal to 109

Per the records, this compound ( COc1ccc(/C=C2\CCc3ccccc3C2=O)cc1 ) has growth equal to 97.3

====

Listing of recorded growth by entry.
Test system: SNB-75 CNS
ASSAY_DETAILS: NCI-60 one-dose screen, 48 h (100 = growth as untreated, 0 = no growth, -100 = all killed)
STUDY_CONDITIONS: 10 µM unless noted
Compounds without any hit were thinned out: in the full panel of roughly 83,000, 20% have a hit. Active and inactive are the calls of the source. How the source made its calls: active means growth percent below 10; inactive means the rest.

Below: 10 compounds and their reported growth.
COMPOUND	TARGET_OR_TEST_SYSTEM	growth
O=C(/C=C/c1ccc([N+](=O)[O-])cc1)c1ccc2c3c(cccc13)CC2	SNB-75 CNS	89% (inactive)
COc1cccc(-c2nc3cc(NC(=O)c4ccc(Cl)c(C#N)c4)ccc3o2)c1	SNB-75 CNS	-2.82% (active)
COC(=O)[C@H]1[C@H]2C[C@@H]3c4[nH]c5cc(OC)ccc5c4CCN3C[C@H]2C[C@@H](OC(=O)/C=C/c2cc(OC)c(OC)c(OC)c2)[C@@H]1OC	SNB-75 CNS	47.2% (inactive)
COc1ccc(C(=O)/C=C/c2cccc(Nc3ccnc4cc(Cl)ccc34)c2)cc1	SNB-75 CNS	-1.22% (active)
COc1cc(/C=N/OC(=O)Nc2ccccc2)cc(OC)c1OC	SNB-75 CNS	85.2% (inactive)
C=C1CC[C@@H]2[C@](C)(COC(C)=O)[C@H](OC(C)=O)CC[C@@]2(C)[C@@H]1CC(NCc1ccccc1)C1=CCOC1=O (some centres undefined)	SNB-75 CNS	76.9% (inactive)
O=C1NC(=O)/C(=C/c2ccc(Cl)cc2Cl)N1	SNB-75 CNS	83.7% (inactive)
Cc1cc(=O)[nH]c(/C(=N/Nc2ccccc2)C(=O)c2ccc(Cl)cc2)n1	SNB-75 CNS	128% (inactive)
CCOc1cc(/C=C/C(=O)C(C(=O)/C=C/c2ccc(OC(=O)CNc3nc4ccccc4[nH]3)c(OCC)c2)C(=O)CNc2nc3ccccc3[nH]2)ccc1OC(=O)CNc1nc2ccccc2[nH]1	SNB-75 CNS	-18.1% (active)
O=C(CC1Sc2ccccc2NC1=O)NNc1cccc(Cl)c1Cl (centres undefined)	SNB-75 CNS	92.2% (inactive)

Per the records, this compound ( N=C1c2nc3n(c2C(=O)c2nc4n(c21)CCCCC4)CCCCC3 ) has growth equal to 105% (inactive)

Per the records, this compound ( O=C(N/N=C/c1ccc(Cl)cc1Cl)c1ccccc1Nc1cccc(C(F)(F)F)c1 ) has growth equal to 78% (inactive)

Per the records, this compound ( Cn1cc(NC(=O)Nc2cc(C(=O)O)n(C)c2)cc1C(=O)O ) has growth equal to 103% (inactive)

Per the records, this compound ( CCOC(=O)C1=CCC(n2cc(C)c(=O)[nH]c2=O)O1 (centres undefined) ) has growth equal to 103% (inactive)

Per the records, this compound ( Cc1ccc(OCC(=O)Nc2ccc(Oc3ccccc3)cc2)c([N+](=O)[O-])n1 ) has growth equal to 78.8% (inactive)

Per the records, this compound ( O=C1C=CC(=O)N1c1ccccn1 ) has growth equal to 89.3% (inactive)

Per the records, this compound ( COc1ccc(-c2c3c(N)nc(-c4ccncc4)nc3nc3c2c(C)nn3-c2ccccc2)cc1 ) has growth equal to 80.6% (inactive)

Per the records, this compound ( O=C(Oc1ccccc1)C(Br)C(Br)c1ccccc1 (centres undefined) ) has growth equal to 110% (inactive)

Per the records, this compound ( COc1cccc(C2=NN(C(C)=O)C(c3cc(OC)c(OC)c(OC)c3)C2)c1 (centres undefined) ) has growth equal to -30.1% (active)

Per the records, this compound ( C(=C1c2ccccc2-c2ccccc21)c1ccccn1 ) has growth equal to 62.5% (inactive)

Per the records, this compound ( CC1(C)CC2(C)CC(=O)C1C(C(=O)O)C2C(=O)O (centres undefined) ) has growth equal to 96.4% (inactive)

Per the records, this compound ( [N-]=[N+]=NCc1cccc(/C(O)=C/C(=O)C(=O)O)c1 ) has growth equal to 73.6% (inactive)

Per the records, this compound ( COc1cc(NC(=O)NCc2ccco2)ccc1-c1ccc(NC(=O)NCc2ccco2)cc1OC ) has growth equal to 65.3% (inactive)

Per the records, this compound ( CCOc1cc(/C=C/C(=O)CC(=O)/C=C/c2ccc(OC(=O)CNCCN(CC)CC)c(OCC)c2)ccc1OC(=O)CNCCN(CC)CC ) has growth equal to -15.1% (active)

Per the records, this compound ( O=C(CSc1nnc(-c2cc(-c3ccccc3)nc3ccccc23)o1)c1ccc(Br)cc1 ) has growth equal to 97.4% (inactive)

Per the records, this compound ( COc1cnc2c(c1)C(=O)c1c-2n(CCCNC(C)C)c(=O)c2cc(F)ccc12 ) has growth equal to -22.5% (active)

Per the records, this compound ( COc1cnc2c(c1)C(=O)c1c-2n(CCCN2CCNCC2)c(=O)c2cc(F)ccc12 ) has growth equal to -7.98% (active)

Per the records, this compound ( CC(C)=CCCC(C)c1ccc(C)c2c1OCN(CC1CCNCC1)C2 (centres undefined) ) has growth equal to 89.3% (inactive)

Per the records, this compound ( COc1ccc(-c2cc(-c3cccnc3)nc(S(=O)(=O)CC(=O)Nc3ccc(C)cc3)c2C#N)cc1OC ) has growth equal to 78.7% (inactive)
